Entry source: BindingDB's records for doi:10.7270/Q2319T8T

Target Desc: UniProtKB Q13285
Sequence (Q13285 whole entry, the tested form may be a part): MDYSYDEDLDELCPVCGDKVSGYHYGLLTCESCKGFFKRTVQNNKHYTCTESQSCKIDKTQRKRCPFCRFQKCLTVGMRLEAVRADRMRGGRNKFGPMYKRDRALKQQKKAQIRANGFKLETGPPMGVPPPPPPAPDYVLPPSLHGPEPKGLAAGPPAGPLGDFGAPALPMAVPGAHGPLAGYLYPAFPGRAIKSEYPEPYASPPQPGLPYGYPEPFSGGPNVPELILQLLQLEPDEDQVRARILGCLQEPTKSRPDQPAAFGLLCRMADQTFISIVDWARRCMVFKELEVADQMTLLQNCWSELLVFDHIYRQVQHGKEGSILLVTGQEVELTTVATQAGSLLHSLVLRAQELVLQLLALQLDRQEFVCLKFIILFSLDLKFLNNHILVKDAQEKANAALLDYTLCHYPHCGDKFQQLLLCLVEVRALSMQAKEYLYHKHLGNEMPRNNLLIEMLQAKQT
Assay Summary: blockers of SF-1 LBD reporter transcription – cell-based, CHO-K1, Gal4-SF-1 LBD, luciferase luminescence, dose response (AID 600)
Task for the reader: assign each of the following molecules its reported pIC50.
Answers are plain numbers, as −log10 of the molar value.

Known pIC50 results, listed for orientation:
{"Molecule": "CCc1ccc(-c2nnn(CCC(=O)OC)n2)cc1", "Target Desc": "UniProtKB Q13285", "pIC50": 5.17}
{"Molecule": "O=C(Nc1ccccc1)c1cccc(-c2nnc(-c3ccccc3)o2)c1 [MLS000100081]", "Target Desc": "UniProtKB Q13285", "pIC50": 5.38}

Query string: State the recorded pIC50 for this entry: `COc1ccccc1-c1nnc2n1N=C(c1ccc(O)c(O)c1)CS2`
Result string: 4.98
